Study Target: T1, FOXN1 1-614 (human, UniProt O15353 1-614)
T1 sequence: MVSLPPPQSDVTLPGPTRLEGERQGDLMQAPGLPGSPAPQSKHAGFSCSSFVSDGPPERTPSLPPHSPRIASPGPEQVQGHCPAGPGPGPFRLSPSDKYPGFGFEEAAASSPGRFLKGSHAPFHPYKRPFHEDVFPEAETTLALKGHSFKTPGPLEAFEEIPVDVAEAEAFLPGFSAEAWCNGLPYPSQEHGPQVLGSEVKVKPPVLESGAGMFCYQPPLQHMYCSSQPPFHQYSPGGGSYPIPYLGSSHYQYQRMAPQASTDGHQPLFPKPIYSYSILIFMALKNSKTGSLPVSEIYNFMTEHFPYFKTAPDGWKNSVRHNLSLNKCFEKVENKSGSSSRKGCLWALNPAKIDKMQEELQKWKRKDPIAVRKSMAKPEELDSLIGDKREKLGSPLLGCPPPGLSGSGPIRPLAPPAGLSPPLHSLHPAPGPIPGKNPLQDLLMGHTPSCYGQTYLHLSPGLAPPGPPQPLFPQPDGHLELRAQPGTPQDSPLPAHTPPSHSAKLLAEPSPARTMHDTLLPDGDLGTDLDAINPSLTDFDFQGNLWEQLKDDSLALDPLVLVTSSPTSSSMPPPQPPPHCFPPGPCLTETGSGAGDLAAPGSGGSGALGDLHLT
Test Method Notes: EMSA; apparent Kd; multiple shifted species; EMSA: 50 mM Tris-HCl pH 7.5, 25 mM NaCl, 0.5 mM EDTA, 0.1% Tween 20, 2 mM DTT, 5% glycerol, 30 min room temperature; FP: 10 mM HEPES pH 7.5, 50 mM NaCl, 1 mM TCEP, 10 nM probe
Run Parameters: protein: recombinant; tags: His tag (pNIC28-Bsa4), cleaved with TEV; label: 32P on forward strand (5', T4 PNK); blunt
Quantity Measured: Kd (nM)
Numbers only, in nM.

Value of measured Kd for the entry PSMA7 tandem FHL EMSA probe (dsDNA) DNA 1: GCAGCAGACGCAACAGAGCGAGACGCCAGGG DNA 2: CCCTGGCGTCTCGCTCTGTTGCGTCTGCTGC : 82
